Hey, just so you know, these numbers are from ChEMBL document CHEMBL4033681.

molecular target: Sigma non-opioid intracellular receptor 1 (Cavia porcellus); experiment: Displacement of [3H]-(+)-pentazocine from sigma-1 receptor in guinea pig brain membranes after 120 mins by microbeta scintillation counting method
Sequence (Q60492 whole entry): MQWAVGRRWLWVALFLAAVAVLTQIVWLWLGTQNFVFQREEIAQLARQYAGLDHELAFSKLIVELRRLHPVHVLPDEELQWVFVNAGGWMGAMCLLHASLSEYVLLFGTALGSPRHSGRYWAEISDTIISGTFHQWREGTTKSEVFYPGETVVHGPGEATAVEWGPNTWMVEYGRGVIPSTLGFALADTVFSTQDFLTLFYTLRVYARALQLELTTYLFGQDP
quantityMeasured: Ki (nM)

As a guide, the following entries are already answered.
smilesText: FCC[C@H]1OC2(CCN(Cc3ccccc3)CC2)c2ccccc21
target: Sigma non-opioid intracellular receptor 1 (Cavia porcellus)
Ki (nM): 0.57
//
smilesText: COC(=O)C[C@H]1Cc2ccccc2[C@@H](CCN2CCC(c3ccccc3)CC2)O1
target: Sigma non-opioid intracellular receptor 1 (Cavia porcellus)
Ki (nM): 33

[1] COC(=O)C[C@@H]1Cc2ccccc2[C@H](CCN2CCCCC2)O1
[2] COC(=O)C[C@@H]1Cc2ccccc2[C@H](CCN2CCC(c3ccccc3)CC2)O1
[3] CCCCCCCCN1CCC2(CC1)O[C@@H](CCO)Cc1ccccc12
[4] COC(=O)C[C@H]1Cc2ccccc2[C@@H](CCN2CCCCC2)O1
Task item: Order the 4 compounds from highest to lowest Ki. Please write the labels in the order that was asked for.
Reply: 1, 4, 2, 3
(1: 860 nM, 4: 556 nM, 2: 43 nM, 3: 24 nM)
